Cited source for all entries: PubChem BioAssay (NCI)

System: OVCAR-4 ovarian
Assay: NCI tumour cell line growth inhibition, 48 h
Exercise: state measured TGI for each of the molecules provided.

CC1=CP(=O)(OC(C)C)C=C(C)C1=C(Cl)Cl (configuration not stated)
> 100 µM
Cn1c(=O)oc2cc(C(O)CN3CCN(Cc4ccc5c(c4)OCO5)CC3)ccc21 (configuration not stated)
> 100 µM
COc1cc2c(cc1OC)C1CN3CCCC3C(O)C1c1cc(OC)c(OC)cc1-2 (configuration not stated)
> 100 µM
C/C(=C\CNc1ncnc2c1ncn2C1CCCCO1)COP(=O)(O)O (configuration not stated)
> 100 µM
Cn1ccc(S(=O)(=O)N2CCC[C@H](Nc3nccc(-c4c(-c5cccc(O)c5)nc5occn45)n3)C2)n1
> 85.8 µM

Would you mind giving TGI for every molecule in the list below?
1. O=C1CC(=O)NC(=NN2C(=O)CSC2c2ccc(Cl)cc2)N1 (configuration not stated)
2. CC=C/C=C/[C@@H]1O[C@](O)([C@H](CC)C(=O)NC/C=C/C=C(\C)[C@@H](OC)[C@@H](C)[C@@H]2O[C@H](/C=C/C=C/C=C(\C)C(=O)c3c(O)cc[nH]c3=O)[C@H](O)[C@@H]2O)[C@H](O)[C@H](O)C1(C)C

stdout:
> 100 µM
> 100 µM

* * *

Tested on: NCI-H522 lung
Test: NCI tumour cell line growth inhibition, 48 h
Recorded Endpoint: TGI

Here is how some compounds turned out for TGI.
O=C1CC[C@@H](S(=O)(=O)c2ccccc2)[C@H](/C=C/c2ccccc2)O1
> 100 µM
Cc1ncnc2c1ccn2[C@@H]1C[C@H](Oc2cc(C(F)F)c(F)c3c2CNCC3)[C@@H](O)[C@H]1O
> 100 µM
CC(=O)c1ccc(NC(=O)C(=O)CC(=O)c2sc(-n3nc(-c4ccccc4)cc3-c3ccccc3)nc2C)cc1
> 100 µM
NC(=S)NN=Cc1ccccc1OCc1cccc(COc2ccccc2C=NNC(N)=S)n1
> 100 µM

Next compound, please.
stdin: Query (compound): O=C(CC(O)(C(F)(F)F)C(F)(F)F)c1cccs1 ; field requested: TGI
stdout: > 10 µM

* * *

Tested on: HOP-92 NSCLC
Assay: NCI tumour cell line growth inhibition, 48 h; in the data active = GI50 below about 0.43 µM; inactive = the rest
A correct response names exactly one class from active, inactive

Some entries whose results are on file:
Cc1ccc(/C=C(/C#N)n2nnc3cccc(F)c32)cc1
active
Cc1ccc2c(-c3ccnc(Nc4cccc(C(F)(F)F)c4)n3)c(-c3ccccc3)nn2n1
inactive
COc1ccc(/C=C/C(=O)C(=O)/C=C/c2ccc(OC)c(OC)c2)cc1OC
inactive
CCN(CC)Cc1cc(Nc2ccnc3ccc(OC)cc23)ccc1O
inactive

stdin: What did this assay record as the result for CCN1C[C@@H](C)n2c(c(O)c3c(=O)n(Cc4ccc(F)c(Cl)c4)nc(C(=O)NC)c32)C1=O ?
stdout: inactive

* * *

Test system: NCI/ADR-RES ovarian
Test: NCI tumour cell line growth inhibition, 48 h
Recorded Endpoint: GI50

Here is how some compounds turned out for GI50.
Cc1cc(NS(=O)(=O)c2ccc(-c3cnc(C4CC4)o3)cc2)ccc1Cl
0.181 µM
CCNCCS(=O)(=O)NC[C@@]1(c2ccccc2)SC(NC(=O)C(C)(C)C)=NN1C(=O)C(C)(C)C
4.11 µM
CN(C)C/C=C/C(=O)Nc1ccc(C(=O)Nc2cccc(Nc3ncc(Cl)c(-c4c[nH]c5ccccc45)n3)c2)cc1
1.54 µM

Would you mind giving GI50 for every compound in the list below?
1. c1ccc(C2=Nc3ccccc3N3CNN=C23)cc1
2. Cn1cc(Nc2nccc(-c3ccc4c(c3)CN(C3COC3)CC[C@H]4NC(=O)c3cn(C(C)(C)C)nn3)n2)cn1

stdout:
1. > 100 µM
2. > 100 µM
